Overview of reported log10 of IC50 across a group of compounds:
- System: T. cruzi Dm28c-Luc intracellular amastigotes
- experimentSummary: Anti-T. cruzi in vitro assay, intracellular amastigotes in Vero cells (luminescence)
- Format: cell-based, Trypanosoma cruzi
- settings: Trypanosoma cruzi, Vero, intracellular amastigotes; 6 − Log10(IC50); read-out: pIC50 (potency) (converted)
- Method: The genetically modified Trypanosoma cruzi, clone Dm28c (TcI), expressing luciferase (Dm28c-Luc), was kindly provided by Dr. Cristina Henriques from Oswaldo Cruz Institute—Fiocruz. The parasites were maintained using Vero cell cultures in RPMI 1640 medium enriched with 10% FBS. At 4 days post-infection (dpi), the trypomastigotes released into the culture supernatant were harvested, subjected to centrifugation at 800× g for 20 min at 4 °C, and quantified with a Neubauer chamber. […]
Kindly note that the scale is log10 and the underlying IC50 is in µM.

Worked set:
{"smilesRepr": "FC(F)(F)c1ccc(-n2cc(C3=NCCN3)cn2)cc1", "tgt": "T. cruzi Dm28c-Luc intracellular amastigotes", "log10 of IC50": 0.60}
{"smilesRepr": "Nc1c(C2=NCCN2)cnn1-c1ccc(C(F)(F)F)cc1", "tgt": "T. cruzi Dm28c-Luc intracellular amastigotes", "log10 of IC50": 2.00}
{"smilesRepr": "Nc1c(C2=NCCN2)cnn1-c1cc(C(F)(F)F)cc(C(F)(F)F)c1", "tgt": "T. cruzi Dm28c-Luc intracellular amastigotes", "log10 of IC50": 1.50}
{"smilesRepr": "Cc1cccc(-n2ncc(C3=NCCN3)c2N)c1", "tgt": "T. cruzi Dm28c-Luc intracellular amastigotes", "log10 of IC50": 1.90}
{"smilesRepr": "Cc1cc(Cl)ccc1-n1ncc(C2=NCCN2)c1N", "tgt": "T. cruzi Dm28c-Luc intracellular amastigotes", "log10 of IC50": 1.90}
{"smilesRepr": "FC(F)(F)c1cc(-n2cc(C3=NCCN3)cn2)cc(C(F)(F)F)c1", "tgt": "T. cruzi Dm28c-Luc intracellular amastigotes", "log10 of IC50": 1.50}
{"smilesRepr": "Cc1ccc(-n2cc(C3=NCCN3)cn2)cc1", "tgt": "T. cruzi Dm28c-Luc intracellular amastigotes", "log10 of IC50": 1.60}
{"smilesRepr": "Nc1c(C2=NCCN2)cnn1-c1ccc(Cl)cc1Cl", "tgt": "T. cruzi Dm28c-Luc intracellular amastigotes", "log10 of IC50": 1.88}

// moving on: another record for log10 of IC50
What does the data say about its log10 of IC50? Entry: Cc1ccc(-n2ncc(C3=NCCN3)c2N)cc1Cl
1.90
